# Tested on: A498 renal
# protocolSummary: NCI tumour cell line growth inhibition, 48 h
measurementKind: log10 TGI (log10 of the value in µM)
Could you please treat all values as log10 of TGI in µM?

// known answers, use as guide
| compound | endpointResult |
| --- | --- |
| CCN(Cc1c(Cl)cccc1Cl)c1ccc(CO)c(Cl)c1 | -1.33 |
| O=C1OCC2=C1C(c1ccccc1)c1cc3c(cc1N2CCO)OCCO3 (configuration not stated) | 0.61 |
| CCN(CC)c1ccc(/C=C/C=C2\NC(=O)NC2=O)cc1 | 0.82 |
| NC(=S)NN=C1CSSC1 | 0.78 |
| COc1cc(NC(=O)C2=C(N3CCOCC3)/C(=C/c3ccc(Cl)cc3)CC2)cc(OC)c1OC | 1.44 |
| COc1ccc(Cn2cc3c(c2-c2cc(OC)c(OC)c(OC)c2)CCc2cnoc2-3)cc1 | -0.14 |
| COc1c(B(O)O)cc(F)cc1-c1nc2ccc3[nH]ncc3c2c2c1CCCC2 | 0.40 |

Answer with the recorded log10 TGI for the compound listed here: `CCCCCCCCCCCCCCCC1=NC(C)(C)CN1C(C)C`
0.80

---

# Tested on: U251 CNS
# protocolSummary: NCI tumour cell line growth inhibition, 48 h
Threshold rule: TGI greater than or equal to 20 µM is 1; below that, -1.

Worked examples follow.
| compound | answerLabel |
| --- | --- |
| N.N.O=P([O-])([O-])C1(P(=O)([O-])[O-])CCCCCN1.[Pt+2] | 1 |
| Cc1c(Cl)cccc1NC(=O)c1sc2nc3c(cc2c1N)CCCCC3 | -1 |
| Cc1ccc([C@]2(C)CC[C@H](C)/C2=C\Br)c(O)c1 | -1 |

Please tell me: is the compound CCC[CH2][Sn]1([CH2]CCC)[O]CC(C)[O]1 (configuration not stated) at or over 20 µM in terms of TGI?
-1

---

Below is a list of entries, each paired with its recorded GI50 value.
# System: MALME-3M melanoma
# protocolSummary: NCI tumour cell line growth inhibition, 48 h

The following compounds have reported results that may help.
| compound | measurementKind | endpointResult |
| --- | --- | --- |
| CCCCCCCCCCCCCCCC1=NC(C)(C)CN1C(C)C | GI50 | 1.64 µM |
| CC(=O)[CH-]C(C)=O.CC(=O)[CH-]C(C)=O.CC[O-].CC[O-].[Ti+4] | GI50 | > 100 µM |
| C[C@@H]1COCCN1c1cc(C2(O)C[C@H]3CC[C@@H](C2)O3)c2cnn(-c3ccn[nH]3)c2n1 (some centres undefined) | GI50 | 0.0656 µM |

Next compound, GI50 to be filled in.
Identify GI50 associated with the compound `C/C(=N\NC(=S)N(C)C)c1ccccn1`
0.00639 µM

---

Consider the following molecules and their measured TGI readings.
# Tested on: CCRF-CEM leukemia
# protocolSummary: NCI tumour cell line growth inhibition, 48 h

| molecule | testSystem | measurementKind | endpointResult |
| --- | --- | --- | --- |
| O=c1oc2c(C(F)(F)F)cccc2cc1-c1csc(Nc2ccc(OCCF)cc2)n1 | CCRF-CEM leukemia | TGI | > 69.2 µM |

Switching to the query record.
For the molecule `Brc1cc2c(cc1Br)CN(c1ccccc1)C2` , give its reported TGI.
> 100 µM

---

# System: HCT-15 colon
# protocolSummary: NCI tumour cell line growth inhibition, 48 h
measurementKind: TGI

These solved cases illustrate the format of a correct answer.
| molecule | TGI |
| --- | --- |
| O=[N+]([O-])c1cccc2nccc(NCCCO)c12 | 21.2 µM |
| O=C1C(Cl)=C(Nc2cccc(O)c2)C(=O)N1Cc1ccc(Cl)cc1Cl | 22.6 µM |
| CC(=O)Nc1ccccc1NC1CC(C)N(c2ccccc2)N1C(C)=O (configuration not stated) | > 10 µM |
| O=c1ccc2ccc(O)cc2o1 | > 100 µM |
| O=C1/C(=C/c2ccc(Br)cc2)CCC/C1=C\c1ccc(Br)cc1 | 31.1 µM |

Respond only with TGI recorded for `Nc1ncc(-c2cccc(S(N)(=O)=O)c2)c2scc(-c3ccc(F)c(Cl)c3)c12`
> 25 µM

Quickly give me recorded TGI for `N#CCC(=O)N1CCCCCCC1`
30.5 µM

Please list TGI recorded for the molecule `Nc1c(C(=O)Nc2cccc(Cl)c2Cl)sc2nc3c(cc12)C(=O)CCC3`
> 100 µM

Tell me TGI reported for `O=C(NC(=S)Nc1cc(Cl)ccc1O)c1cccc(Br)c1`
> 100 µM

Provide only the value of recorded TGI for `OCCN1CCN(CC/C=C2/c3ccccc3Sc3ccc(Cl)cc32)CC1`
26.2 µM

Respond only with TGI recorded for `CC(=O)c1c2n(n(-c3ccccc3)c1=O)C(=O)c1nccnc1-2`
> 100 µM

---

Each entry below carries its reported TGI.
# System: ACHN renal
# protocolSummary: NCI tumour cell line growth inhibition, 48 h

Here is how some compounds turned out for TGI.
| compound | testSystem | measurementKind | endpointResult |
| --- | --- | --- | --- |
| CC(O)c1cc(C(=O)N[C@@H](C)Cn2ccc(-c3ccc(C#N)c(Cl)c3)n2)n[nH]1 (some centres not stated) | ACHN renal | TGI | > 100 µM |
| CCCCCCCCCCC(C)CCCCCCC(=O)O (configuration not stated) | ACHN renal | TGI | > 100 µM |
| CC1(C)CCc2c(c(N=Nc3ccc(F)cc3)c3ccccc3c2O)O1 | ACHN renal | TGI | > 100 µM |
| COc1cccc2c1n([O-])c1cccc(OC)c1[n+]2=O | ACHN renal | TGI | > 100 µM |
| Cc1cn(S(=O)(=O)c2ccccc2)c2c(OCc3ccccc3)cc(NS(C)(=O)=O)cc12 | ACHN renal | TGI | > 100 µM |
| CC1(C)CC(N(C(=O)/C=C/c2ccc([N+](=O)[O-])o2)C2CCCCC2)CC(C)(C)N1 | ACHN renal | TGI | 25.4 µM |
| CC(C)(C)c1ccc(NS(=O)(=O)c2ccc3nc(NC(=O)c4cnccn4)[nH]c3c2)cc1 | ACHN renal | TGI | 7.63 µM |
| O=C1c2ccccc2C(=O)c2[nH]c(Cc3ccc(F)cc3)nc21 | ACHN renal | TGI | 31.2 µM |
| NC(=S)NN=C1CSSC1 | ACHN renal | TGI | 31.7 µM |
| C=CCC(C(=O)Nc1cccc2[nH]cnc12)C(=O)OCC (configuration not stated) | ACHN renal | TGI | > 100 µM |

Provide one value: measured TGI of `Nc1ncc(-c2cccc(S(N)(=O)=O)c2)c2scc(-c3ccc(F)c(Cl)c3)c12`
> 25 µM

Return TGI (reported value) for this compound: `Cc1ccc(CCC(=O)C(=O)O)s1`
> 100 µM

Indicate the recorded TGI value for this compound: `CN(C)CC/C(=N\Nc1ccc(Cl)cc1Cl)c1ccccc1`
29.4 µM

Kindly indicate its recorded TGI. Item: `O=[N+]([O-])c1cccc2nccc(NCCCO)c12`
53.5 µM

Please give measured TGI of the following entry: `CN(Cc1cc(Cl)c(Cl)cc1NC(=O)CN)[C@H]1CCCC[C@@H]1N1CCCC1`
> 100 µM

Consider the compound `CCOC(=O)C(NC(=O)OC(C)(C)C)C(=O)OCC` . State its measured TGI.
> 100 µM

# return recorded TGI for input `C=C1CN(C2=NCCO2)C1`
> 100 µM

Kindly indicate its recorded TGI. Item: `O=C(CCCCC(=O)N/N=C\c1ccccc1O)N/N=C\c1ccccc1O`
> 100 µM

Return reported TGI. Input compound: `COc1cc(NC(=O)C2=C(N3CCOCC3)/C(=C/c3ccc(Cl)cc3)CC2)cc(OC)c1OC`
61.8 µM

Fill in reported TGI for this entry: CCOC(=O)[C@@H]1ON2OC(OC3CCCC3(c3ccccc3)c3ccccc3)C(OC(C)=O)[C@H]3OC(=O)[C@@H]1C32 (some centres not stated)
73.2 µM

Return TGI (reported value) for this compound: `C/C=N\N1C(=O)c2ccccc2C1=O`
> 100 µM

Please report TGI for the following compound: `CCCC(=O)[O-].N.N.N.N.N.[Co+3].[O-][Cl+3]([O-])([O-])[O-]`
> 100 µM

---

# Test system: RPMI-8226 leukemia
# protocolSummary: NCI tumour cell line growth inhibition, 48 h; in the data active = GI50 below about 0.43 µM; inactive = the rest
Respond only with the outcome that fits, drawn from active, inactive

| compound | testSystem | answerLabel |
| --- | --- | --- |
| CCCCCn1c(C)cc(/C=C\c2ccc3cc(C)ccc3[n+]2C)c1C | RPMI-8226 leukemia | active |

Could you check what this test reported for `CC(=O)c1cc(O)c2ccccc2c1O` ?
inactive

// outcome(item) with item = COC(=O)C(C)NC(=O)c1ccccc1I(OS(=O)(=O)C(F)(F)F)c1ccccc1 (stereo not given)
inactive

Please let me know the test result on file for O=C1OCC2=C1C(c1ccccc1)c1cc3c(cc1N2CCO)OCCO3 (stereo not given) .
active

Assay result, entry C[C@@H]1COCCN1c1cc(C2(O)C[C@H]3CC[C@@H](C2)O3)c2cnn(-c3ccn[nH]3)c2n1 (stereo not given in full) — outcome?
active

Cited source for all entries: PubChem BioAssay (NCI)
